molecular target: Orexin type 1 (OX1R) receptor (Homo sapiens); construct: expressed in transfected cells; host or cells: CHO cells (G418 selection); experiment: In vitro orexin antagonism assay: intracellular calcium measurement (FLIPR), orexin-A 3 nM as agonist; assay type: cell-based; conditions: second value of IC50/Kb cell
Provide the recorded Kb for the entries that follow.
Numbers only, in nM.

>>> result_number("O=C(c1c(-c2ccccc2)nn2cccnc12)N1CCC[C@H]1Cn1ccc(-c2ccccn2)n1 [Example 140]")
1

List reported Kb for each of these compounds:
1. O=C(c1c(-c2ccccc2)nc2cc(C(F)(F)F)ccn12)N1CCC[C@H]1Cn1ccc(-c2ccc(F)cn2)n1 [Example 94]
2. O=C(c1nc2ccccn2c1-c1ccccc1)N1C2CCC1(COc1ccc(C(F)(F)F)cn1)CC2 [Example 160]
3. C[C@@H]1CCCN(C(=O)c2c(-c3ccccc3)nn3ccccc23)[C@@H]1CNc1ccc(C(F)(F)F)cn1 [Example 6]
4. C[C@@H]1CCCN(C(=O)c2c(-c3ccccc3)nc3ncccn23)[C@@H]1CNc1ccc(C(F)(F)F)cn1 [Example 34]
5. O=C(c1c(-c2ncccn2)nn2ccccc12)N1CCC[C@H]1Cn1ccc(-c2ccc(F)cn2)n1 [Example 203]

1: 8; 2: 5; 3: 2; 4: 11; 5: 4

Kb for O=C(c1c(-c2ncccn2)nn2ccccc12)N1CCC[C@H]1Cn1ccc(-c2ccccc2)n1 [Example 131] is 1

* * *

biological target: human orexin-2 receptor (OX2R) (Homo sapiens); assay: In vitro orexin antagonism assay: intracellular calcium measurement (FLIPR), orexin-A 3 nM as agonist; settings: first value of IC50/Kb cell
pIC50: −log10 of the molar value.
// False strictly below 7 in pIC50; True otherwise

Observe how each entry below is paired with its result.
>>> assigned_category("O=C(c1nn2c(c1-c1ccccc1)COCC2)N1CCC[C@H]1Cn1ccc(-c2ccccc2)n1 [Example 129]")
"False"
>>> assigned_category("O=C(c1c(-c2ccc(F)cc2)nn2ccccc12)N1CCC[C@H]1Cn1ccc(-c2ccc(F)cc2)n1 [Example 55]")
"True"
>>> assigned_category("O=C(c1c(-c2ccccc2F)nn2ccccc12)N1CC[C@H]1Cn1ccc(-c2ccc(F)cc2)n1 [Example 99]")
"False"
>>> assigned_category("O=C(c1nn2cccnc2c1-c1ccccc1)N1CCC[C@H]1Cn1ccc(-c2ccccc2)n1 [Example 136]")
"True"
>>> assigned_category("O=C(c1c(-c2ccccc2)nc2cc(C(F)(F)F)ccn12)N1CCC[C@H]1Cn1ccc(-c2ccc(F)cn2)n1 [Example 94]")
"True"

Given O=C(c1c(-c2ccccc2)nn2ccccc12)N1CCC[C@H]1Cc1nc(-c2ccc(F)cn2)no1 [Example 120] , state whether its pIC50 is at least 7.
False

Given O=C(c1nn2ccccc2c1-c1ccccc1)N1CCC[C@H]1Cn1cc(-c2ccc(F)cn2)cn1 [Example 112] , state whether its pIC50 is at least 7.
True

Given O=C(c1nn2cccnc2c1-c1ccccc1)N1CCC[C@H]1Cn1ccc(-c2ccccn2)n1 [Example 137] , state whether its pIC50 is at least 7.
False

* * *

target: human orexin-2 receptor (OX2R) (Homo sapiens, UniProt O43614); construct: expressed in transfected cells; host or cells: CHO cells (G418 selection); assay: In vitro orexin antagonism assay: intracellular calcium measurement (FLIPR), orexin-A 3 nM as agonist; assay type: cell-based; conditions: second value of IC50/Kb cell
Sequence (O43614 whole entry): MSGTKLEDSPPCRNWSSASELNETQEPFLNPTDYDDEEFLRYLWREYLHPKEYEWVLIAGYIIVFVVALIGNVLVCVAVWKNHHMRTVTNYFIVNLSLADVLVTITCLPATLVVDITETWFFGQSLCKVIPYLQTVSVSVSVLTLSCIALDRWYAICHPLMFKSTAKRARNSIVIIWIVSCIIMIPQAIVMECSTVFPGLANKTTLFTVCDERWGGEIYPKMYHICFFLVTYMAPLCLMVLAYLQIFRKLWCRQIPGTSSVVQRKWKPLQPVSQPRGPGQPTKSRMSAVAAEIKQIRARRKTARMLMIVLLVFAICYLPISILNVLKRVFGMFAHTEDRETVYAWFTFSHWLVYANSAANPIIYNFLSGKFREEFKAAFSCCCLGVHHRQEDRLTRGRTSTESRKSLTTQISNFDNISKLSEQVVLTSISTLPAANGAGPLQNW
METRIC NAME: Kb (nM)
Give bare numbers, in nM.

Solved cases below.
>>> result_number("[2H]C1([2H])CC[C@@]([2H])(Cn2ccc(-c3ccc(F)cc3)n2)N1C(=O)c1c(-c2ncccn2)nn2ccccc12")
3
>>> result_number("O=C(c1c(-c2ccccn2)nn2ccccc12)N1CCC[C@H]1Cn1ccc(-c2ccc(F)cn2)n1")
4
>>> result_number("O=C(c1c(-c2ccccc2F)nn2ccccc12)N1[C@H](Cn2ccc(-c3ccc(F)cn3)n2)C[C@@H]2C[C@@H]21")
90

For the next question, use this molecule.
Kb for O=C(c1c(-c2ccccc2)nn2ccccc12)N1CCC[C@H]1Cc1nc(-c2ccc(F)cn2)no1 is 52

* * *

target: Orexin type 1 (OX1R) receptor (Homo sapiens); construct: expressed in transfected cells; host or cells: CHO cells (G418 selection); assay: In vitro orexin antagonism assay: intracellular calcium measurement (FLIPR), orexin-A 3 nM as agonist; format: cell-based; conditions: second value of IC50/Kb cell
Provide the recorded Kb for the entries that follow.
Answers are plain numbers, in nM.

>>> result_number("O=C(c1c(-c2ccccc2F)nn2c1COCC2)N1CCC[C@H]1Cn1ccc(-c2ccccn2)n1")
25
>>> result_number("O=C(c1nn2c(c1-c1ccccn1)COCC2)N1CCC[C@H]1Cn1ccc(-c2ccc(F)cn2)n1 [Example 196]")
5
>>> result_number("O=C(c1c(-c2ccccc2)nn2c1COCC2)N1CCCC[C@H]1COc1ccc(C(F)(F)F)cn1")
1

List reported Kb for each of these compounds:
1. O=C(c1c(-c2ccccc2F)nn2ccccc12)N1CCC[C@H]1Cn1ccc(-c2ccc(F)cn2)n1
2. O=C(c1c(-c2ccccc2)nc2ccc(F)cn12)N1CCC[C@H]1Cn1ccc(-c2ccccn2)n1
3. O=C(c1c(-c2ccccc2)nn2ccccc12)N1CCC[C@H]1Cc1nc(-c2ccc(F)cn2)no1
4. O=C(c1nn2cccnc2c1-c1ccccc1)N1CCC[C@H]1Cn1ccc(-c2ccccn2)n1
5. O=C(c1nn2cccnc2c1-c1ccccn1)N1CCC[C@H]1Cc1nc(-c2ccccn2)no1

1: 1; 2: 2; 3: 10; 4: 1; 5: 6

* * *

target: Orexin type 1 (OX1R) receptor (Homo sapiens, UniProt O43613); construct: expressed in transfected cells; host or cells: CHO cells (G418 selection); assay: In vitro orexin antagonism assay: intracellular calcium measurement (FLIPR), orexin-A 3 nM as agonist; assay type: cell-based; details: second value of IC50/Kb cell
Sequence (O43613 whole entry): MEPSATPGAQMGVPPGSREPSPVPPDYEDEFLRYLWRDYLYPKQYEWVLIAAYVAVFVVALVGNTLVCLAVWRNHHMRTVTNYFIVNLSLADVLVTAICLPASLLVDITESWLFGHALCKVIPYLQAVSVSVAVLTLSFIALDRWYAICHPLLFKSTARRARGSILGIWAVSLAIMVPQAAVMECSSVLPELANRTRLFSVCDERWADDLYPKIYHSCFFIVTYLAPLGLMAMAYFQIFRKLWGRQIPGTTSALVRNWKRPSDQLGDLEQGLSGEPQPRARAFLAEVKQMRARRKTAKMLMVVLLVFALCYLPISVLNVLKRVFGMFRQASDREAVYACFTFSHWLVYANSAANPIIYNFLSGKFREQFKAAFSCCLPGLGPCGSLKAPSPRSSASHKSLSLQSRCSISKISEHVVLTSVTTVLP
Flag rule - Kb less than 6 nM flags T; the remaining entries get F.

Consider the compound O=C(c1c(-c2ccccc2)nc2cc(F)ccn12)N1CCC[C@H]1COc1ccc(C(F)(F)F)cn1 . Is its Kb strictly less than 6 nM?
F

* * *

target: human orexin-2 receptor (OX2R) (Homo sapiens); construct: expressed in transfected cells; host or cells: CHO cells (G418 selection); experiment: In vitro orexin antagonism assay: intracellular calcium measurement (FLIPR), orexin-A 3 nM as agonist; format: cell-based; details: read-out: OX2R, % Inh. @ 1 uM
Provide the recorded inhibition at 1 µM for the entries that follow.
Give bare numbers, in %.

Solved cases below.
>>> result_number("O=C(c1c(-c2ccccc2F)nn2ccccc12)N1CCC[C@H]1Cn1ccc(-c2ccccn2)n1 [Example 67]")
74
>>> result_number("O=C(c1c(-c2ccccc2)nc2ncccn12)N1CCC[C@H]1Cn1ccc(-c2ccccc2)n1 [Example 35]")
23.7
>>> result_number("O=C(c1c(-c2ccccc2)nn2ccccc12)N1CCCC[C@H]1COc1ccc(C(F)(F)F)cn1 [Example 24]")
60.1

For the next question, use this molecule.
inhibition at 1 µM for O=C(c1c(-c2ccccc2)nc2cc(C(F)(F)F)ccn12)N1CCC[C@H]1Cn1ccc(-c2ccccn2)n1 [Example 78] is 55

* * *

Provide the recorded pIC50 for the entries that follow.
biological target: Orexin type 1 (OX1R) receptor (Homo sapiens, UniProt O43613); assay: In vitro orexin antagonism assay: intracellular calcium measurement (FLIPR), orexin-A 3 nM as agonist; details: first value of IC50/Kb cell
Answers are plain numbers, as −log10 of the molar value.

Solved cases below.
>>> result_number("CCc1cnc(NC[C@@H]2[C@H](C)CCCN2C(=O)c2c(-c3ccccc3)nn3c2COCC3)nc1 [Example 5]")
6.85
>>> result_number("C[C@@]1(COc2ccc(C(F)(F)F)cn2)CCCN1C(=O)c1c(-c2ccccc2)nn2ccccc12 [Example 151]")
7.05
>>> result_number("O=C(c1c(-c2ccccc2)nc2ccccn12)N1CCC[C@H]1COc1ccc(C(F)(F)F)cn1 [Example 18]")
6.54
>>> result_number("O=C(c1c(-c2ccccc2)nc2ccc(F)cn12)N1CCC[C@H]1Cn1ccc(-c2ccccn2)n1 [Example 73]")
8.05
>>> result_number("O=C(c1nc2ccccn2c1-c1ccccn1)N1CCC[C@H]1Cn1ccc(-c2ccc(F)cn2)n1 [Example 207]")
7.52
>>> result_number("O=C(c1c(-c2ccccc2)nn2c1COCC2)N1CCC[C@H]1CNc1ccc(C(F)(F)F)cn1 [Example 2]")
6.92

List reported pIC50 for each of these compounds:
1. O=C(c1c(-c2ccccc2F)nn2ccccc12)N1CCC[C@H]1Cn1ccc(-c2ccccn2)n1 [Example 67]
2. C[C@@H]1CCCN(C(=O)c2c(-c3ccccc3)nn3ccccc23)[C@@H]1CNc1ncc(F)cn1 [Example 22]

1. 7.89
2. 8.00

* * *

target: human k-opioid receptor (kOR) (Homo sapiens, UniProt P41145); construct: expressed in transfected cells; host or cells: RBL cells (membrane homogenates); experiment: Human k-opioid (KOP) receptor (agonist radioligand [3H]U-69593) binding assay, transfected RBL cell membranes; settings: read-out: KOR % Inh. @ 1 uM
Sequence (P41145 whole entry): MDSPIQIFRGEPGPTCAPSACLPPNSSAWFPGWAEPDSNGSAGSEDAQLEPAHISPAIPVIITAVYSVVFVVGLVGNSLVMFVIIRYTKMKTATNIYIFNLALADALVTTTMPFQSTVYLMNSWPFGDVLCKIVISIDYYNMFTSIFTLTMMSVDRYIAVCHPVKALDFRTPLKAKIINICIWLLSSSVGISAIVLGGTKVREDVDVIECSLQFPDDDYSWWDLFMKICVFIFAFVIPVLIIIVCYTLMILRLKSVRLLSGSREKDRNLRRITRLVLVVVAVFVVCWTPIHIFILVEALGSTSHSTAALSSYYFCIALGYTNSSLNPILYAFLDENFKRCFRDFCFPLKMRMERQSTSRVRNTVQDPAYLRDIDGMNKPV
Provide the recorded inhibition at 1 µM for the entries that follow.

Solved cases below.
>>> result("O=C(c1nn2ccccc2c1-c1ccccn1)N1CCC[C@H]1Cn1ccc(-c2ccccn2)n1")
"0%"
>>> result("O=C(c1c(-c2ccccc2F)nc2ccccn12)N1CCC[C@H]1COc1ccc(C(F)(F)F)cn1")
"11%"
>>> result("O=C(c1c(-c2ccccn2)nn2ccccc12)N1CCC[C@H]1Cc1nc(-c2ccccn2)no1")
"6%"
>>> result("O=C(c1c(-c2ccc(F)cc2)nn2ccccc12)N1CCC[C@H]1Cn1ccc(-c2ccccc2)n1")
"55%"
>>> result("O=C(c1nn2cccnc2c1-c1ccccn1)N1CCC[C@H]1Cn1cc(-c2ccc(F)cn2)cn1")
"0%"

List reported inhibition at 1 µM for each of these molecules:
1. O=C(c1nn2ccccc2c1-c1ccccc1)N1CCC[C@H]1Cn1cc(-c2ccc(F)cn2)cn1
2. O=C(c1c(-c2ccccc2)nc2cc(C(F)(F)F)ccn12)N1CCC[C@H]1Cn1ccc(-c2ccc(F)cc2)n1

1: 70%; 2: 93%
